// data source = patent US11384055B2

Molecular target: Human GO (Homo sapiens)
Construct: purchased Novus Biologicals NBP1-72412
Sequence (Q9UJM8 whole entry): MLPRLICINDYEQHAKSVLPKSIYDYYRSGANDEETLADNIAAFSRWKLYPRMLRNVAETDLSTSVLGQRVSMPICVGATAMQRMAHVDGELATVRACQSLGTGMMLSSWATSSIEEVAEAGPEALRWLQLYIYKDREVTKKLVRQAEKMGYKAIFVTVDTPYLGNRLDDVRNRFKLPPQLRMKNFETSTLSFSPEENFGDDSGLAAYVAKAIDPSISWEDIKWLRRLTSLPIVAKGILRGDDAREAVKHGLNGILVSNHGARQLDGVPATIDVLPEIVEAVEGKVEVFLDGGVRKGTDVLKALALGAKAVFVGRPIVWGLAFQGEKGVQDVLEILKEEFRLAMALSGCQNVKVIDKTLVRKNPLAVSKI
Experiment: GO enzymatic assay (coupled fluorescence/HRP assay, glycolate substrate)
Type: biochemical
Conditions: Table 2; read-out: Range (range of IC50 values calculated from the enzymatic assays)
pIC50: −log10 of the molar value.
Exercise: for every item that follows, state its recorded pIC50.

query: Find the recorded pIC50 belonging to CN(Cc1nn[nH]c1C(=O)O)c1ccc(Cl)c(Cl)c1 [Compound 179, 2,2,2-trifluoroacetate] and report it.
result: > 7.00

query: Find the recorded pIC50 belonging to O=C(O)c1[nH]nnc1SC1CCC(c2cccc(C(F)(F)F)c2)CC1 (centres unmarked) and report it.
result: > 7.00

query: Find the recorded pIC50 belonging to O=C(O)c1[nH]nnc1-c1cc(Cl)cc(OCC2CC2)c1 [Compound 217, 2,2,2-trifluoroacetate] and report it.
result: > 7.00

query: Find the recorded pIC50 belonging to `O=C(O)c1[nH]nnc1Oc1ccc2cc(OC(F)F)ccc2c1` and report it.
result: > 7.00

query: Find the recorded pIC50 belonging to `O=C(O)c1[nH]nnc1O[C@H]1CC[C@@H](c2ccc(OC(F)(F)F)c(Cl)c2)CC1` and report it.
result: > 7.00

query: Find the recorded pIC50 belonging to O=C(O)c1[nH]nnc1CSc1ccc(-c2ccc(OC(F)(F)F)cc2)cc1 [Compound 312, 2,2,2-trifluoroacetate] and report it.
result: > 7.00

query: Find the recorded pIC50 belonging to O=C(O)c1[nH]nnc1Oc1ccc(-c2ccc(N3CCCCC3)cc2)cc1 [Compound 221, 2,2,2-trifluoroacetate] and report it.
result: > 7.00

query: Find the recorded pIC50 belonging to `O=C(O)c1[nH]nnc1Oc1ccc(-c2ccc(C3CCOCC3)cc2)cc1` and report it.
result: > 7.00

query: Find the recorded pIC50 belonging to `O=C(O)c1[nH]nnc1Oc1ccc(Cl)c(OCC2CC2)c1` and report it.
result: > 7.00

query: Find the recorded pIC50 belonging to O=C(O)c1[nH]nnc1C(F)(F)c1ccc(-c2ccc(Cl)c(Cl)c2)cc1 [Compound 201, 2,2,2-trifluoroacetate] and report it.
result: > 7.00

query: Find the recorded pIC50 belonging to O=C(O)c1[nH]nnc1SCc1ccc2cc(Cl)ccc2c1 [Compound 174, 2,2,2-trifluoroacetate] and report it.
result: > 7.00

query: Find the recorded pIC50 belonging to `CCN(Cc1nn[nH]c1C(=O)O)c1ccc(Cl)c(Cl)c1` and report it.
result: 6.00 to 7.00

query: Find the recorded pIC50 belonging to O=C(O)c1[nH]nnc1OC1CCC2(CC1)CC2 [Compound 280, 2,2,2-trifluoroacetate] and report it.
result: > 7.00

query: Find the recorded pIC50 belonging to CN(Cc1nn[nH]c1C(=O)O)c1ccc(-c2ccc(OC(F)(F)F)cc2)cc1 [Compound 333, 2,2,2-trifluoroacetate] and report it.
result: > 7.00

query: Find the recorded pIC50 belonging to O=C(O)c1[nH]nnc1OC1CCC(c2ccc(OC(F)(F)F)cc2)C1 (centres unmarked) and report it.
result: > 7.00

query: Find the recorded pIC50 belonging to `CC(=O)NCCOc1ccc(-c2nn[nH]c2C(=O)O)cc1` and report it.
result: 5.00 to 6.00

query: Find the recorded pIC50 belonging to `O=C(O)c1[nH]nnc1OC1CCN(c2ccc(OC(F)(F)F)c(Cl)c2)CC1` and report it.
result: > 7.00

query: Find the recorded pIC50 belonging to `O=C(O)c1[nH]nnc1Oc1cc(OCC2CC2)ccc1Cl` and report it.
result: > 7.00

query: Find the recorded pIC50 belonging to O=C(O)c1[nH]nnc1COc1ccc(-c2ccc(Cl)c(Cl)c2)cc1 [Compound 266, 2,2,2-trifluoroacetate] and report it.
result: > 7.00

query: Find the recorded pIC50 belonging to `O=C(O)c1[nH]nnc1Sc1ccc(Cl)c(OCC2CCCCC2)c1` and report it.
result: > 7.00

query: Find the recorded pIC50 belonging to O=C(O)c1[nH]nnc1SC1Cc2ccc(OC(F)(F)F)cc2C1 (centres unmarked) and report it.
result: > 7.00

query: Find the recorded pIC50 belonging to O=C(O)c1[nH]nnc1O[C@H]1CC[C@@H](c2ccc(N3CCCC3)cc2)CC1 [Compound 356, 2,2,2-trifluoroacetate] and report it.
result: > 7.00

query: Find the recorded pIC50 belonging to `O=C(O)c1[nH]nnc1Oc1ccc(-c2cccc(C3CCCCC3)c2)cc1` and report it.
result: > 7.00

query: Find the recorded pIC50 belonging to CC(C)N1CCCc2ccc(Oc3nn[nH]c3C(=O)O)cc21 [Compound 245, 2,2,2-trifluoroacetate] and report it.
result: 5.00 to 6.00

query: Find the recorded pIC50 belonging to O=C(O)c1[nH]nnc1NC1Cc2cc(Cl)c(Cl)cc2C1 [Compound 190, 2,2,2-trifluoroacetate] and report it.
result: 6.00 to 7.00

query: Find the recorded pIC50 belonging to `O=C(O)c1[nH]nnc1COc1ccc(-c2ccc(OC(F)(F)F)c(Cl)c2)cc1` and report it.
result: > 7.00

query: Find the recorded pIC50 belonging to `O=C(O)c1[nH]nnc1CSc1ccc(-c2cc(Cl)cc(Cl)c2)cc1` and report it.
result: > 7.00

query: Find the recorded pIC50 belonging to `O=C(O)c1[nH]nnc1COc1ccc(-c2ccc(OC(F)(F)F)cc2)cc1` and report it.
result: > 7.00

query: Find the recorded pIC50 belonging to CCN(Cc1nn[nH]c1C(=O)O)c1ccc(-c2ccc(OC(F)(F)F)cc2)cc1 [Compound 189, 2,2,2-trifluoroacetate] and report it.
result: 6.00 to 7.00

query: Find the recorded pIC50 belonging to `O=C(O)c1[nH]nnc1CN(Cc1ccc(OC(F)(F)F)cc1)c1ccc(Cl)cc1` and report it.
result: 6.00 to 7.00

query: Find the recorded pIC50 belonging to CC(C)N1CCCc2cc(-c3nn[nH]c3C(=O)O)ccc21 [Compound 206, 2,2,2-trifluoroacetate] and report it.
result: 5.00 to 6.00

query: Find the recorded pIC50 belonging to `CC(=O)NCCOc1cccc(-c2ccc(Oc3nn[nH]c3C(=O)O)cc2)c1` and report it.
result: > 7.00
